# Test system: F1*sub RNA substrate (template-directed ligation)
# EXPERIMENT: fraction ligated after 30 min (ligated reads / total reads); higher = more ligase activity; sequences stand for … in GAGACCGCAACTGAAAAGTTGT…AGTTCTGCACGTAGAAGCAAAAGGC
# RECORDED CONDITIONS: 42 °C
fraction ligated overview
REPORTED ENDPOINT: fraction ligated

| MONOMER SEQUENCE | REPORTED ENDPOINT | TEST VALUE |
| --- | --- | --- |
| ACACTTGTGTAAGACACTTTGGATGGGTTGA [3d30] | fraction ligated | 0.407 |
| ATACTTTCGTAAGACACTTTGGATGGGTTGA [3d49] | fraction ligated | 0.0977 |
| TATCCTTTCGTAAACACTTTGGATGGGTTGA [3d972] | fraction ligated | 0.795 |
| ATACTTGTCGTAAGACACTTTGATGGGTTGA [3d61] | fraction ligated | 0.291 |
| TATCACTTGTCGTAAGACATTGGTGGGTTGA [3d2209] | fraction ligated | 0.0429 |
| TATCACTTGTCGAAGACCTTTGGATGGGTTG [3d1949] | fraction ligated | 0.79 |
| ACACTTGTCGTAAGAACTTTGGATGGGTTGA [3d36] | fraction ligated | 0.218 |
| TATCCTTGTGAAGACACTTTGGATGGGTTGA [3d1001] | fraction ligated | 0.792 |
| TATCATGTCGTAGACACTTTGGATGGGTTGA [3d1127] | fraction ligated | 0.817 |
| ATCACTTGTCGTAAGCACTTTGGAGGGTTGA [3d227] | fraction ligated | 0.0599 |
| TATCATTGTCGTAGACACTTTGGATGGGTTA [3d1225] | fraction ligated | 0.595 |

====

# Test system: F1*sub RNA substrate (template-directed ligation)
# EXPERIMENT: fraction ligated after 30 min (ligated reads / total reads); higher = more ligase activity; sequences stand for … in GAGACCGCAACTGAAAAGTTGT…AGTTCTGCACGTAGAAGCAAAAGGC
# RECORDED CONDITIONS: 42 °C
Label FALSE if fraction ligated falls below 0.7; label TRUE in every other case.

| MONOMER SEQUENCE | ASSAY SYSTEM | LABEL |
| --- | --- | --- |
| TACATTGTCGTAAGACCTTTGGATGGGTTGA [3d557] | F1*sub RNA substrate (template-directed ligation) | FALSE |
| ATCACTGTCGTAGACACTTTGGATGGGTTGA [3d111] | F1*sub RNA substrate (template-directed ligation) | TRUE |
| TATCACTTGTCGAGACACTTTGGATGGGTTGA [2d208] | F1*sub RNA substrate (template-directed ligation) | TRUE |
| ATCACGTCGTAAGACACTTTGGATGGGTTGA [3d105] | F1*sub RNA substrate (template-directed ligation) | TRUE |
| TATCATTGTCGTAAGCACTTTGGTGGGTTGA [3d1242] | F1*sub RNA substrate (template-directed ligation) | FALSE |
| TATCACTTTCTAAGACACTTTGATGGGTTGA [3d1487] | F1*sub RNA substrate (template-directed ligation) | TRUE |
| TACACTTGTCGTAAGACATTTGATGGGTTGA [3d708] | F1*sub RNA substrate (template-directed ligation) | FALSE |
| TATCACTGTCGTAAGACACTTTGGATGGTTG [3d1461] | F1*sub RNA substrate (template-directed ligation) | FALSE |
| TATCACTTGTCGTAAGACCTTTGGATGGTTG [3d2204] | F1*sub RNA substrate (template-directed ligation) | FALSE |
| ATACTTGTCGTAAGACACTTTGGATGGTTGA [3d64] | F1*sub RNA substrate (template-directed ligation) | FALSE |
| TATCACTGTCGTAAACACTTTGATGGGTTGA [3d1402] | F1*sub RNA substrate (template-directed ligation) | FALSE |

====

# System: F1*sub RNA substrate (template-directed ligation)
# EXPERIMENT: fraction ligated after 30 min (ligated reads / total reads); higher = more ligase activity; sequences stand for … in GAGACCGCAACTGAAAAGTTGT…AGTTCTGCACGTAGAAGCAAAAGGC
# RECORDED CONDITIONS: 42 °C
The following sequences are shown together with reported fraction ligated values.
REPORTED ENDPOINT: fraction ligated

| MONOMER SEQUENCE | TEST VALUE |
| --- | --- |
| TATCACTTTCGAAGACACTTTGGTGGGTTGA [3d1501] | 0.0423 |
| ATCATTGTCGTAGACACTTTGGATGGGTTGA [3d92] | 0.761 |
| TTCACTTGTCGTAAGCACTTTGGATGGGTTG [3d461] | 0.601 |
| TACACTTTCGAAGACACTTTGGATGGGTTGA [3d587] | 0.0357 |
| TATCCTTGTCGTAAGACCTTTGGATGGGTTA [3d1088] | 0.347 |
| TTCACTTGTGAAGACACTTTGGATGGGTTGA [3d388] | 0.767 |
| TATCACTTGTCGTAGACCTTTGGAGGGTTGA [3d2024] | 0.211 |
| TATACTTGCGTAAGACACTTTGATGGGTTGA [3d822] | 0.285 |
| ATCACTTGTCGTGACACTTTGGATGGGTTGA [3d198] | 0.746 |
| TATCACTTGTCGTAAGACCTTTGGAGGGTTA [3d2201] | 0.0991 |
| TACACTTGTCGAAGACATTTGGATGGGTTGA [3d651] | 0.444 |
| ATCACTTGTCTAAGACACTTTGGTGGGTTGA [3d180] | 0.0503 |
| TATCATTGTCGAAGACACTTTGGATGGGTTA [3d1212] | 0.475 |
| TATCACTGTCGAAGCACTTTGGATGGGTTGA [3d1374] | 0.826 |
| TACACTTGTCGTAAGACATTTGGATGGGTTG [3d713] | 0.324 |
| TATCCTTGTCGTAAGACACTTTGGTGGGTTG [3d1113] | 0.0948 |
| TACACTTGTCGTAAGAATTTGGATGGGTTGA [3d692] | 0.123 |
| ATCACTTGTCGTAAGAACTTTGGAGGGTTGA [3d235] | 0.0738 |
| TACACTTGCGTAAGACACTTGGATGGGTTGA [3d610] | 0.0197 |
| TATATTGTCGTAAGCACTTTGGATGGGTTGA [3d766] | 0.411 |
| TATCACTTGTCGTAAGACACTTTGGTGGGTTA [2d291] | 0.018 |
| TTCACTTGCGTAAGACACTTTGGTGGGTTGA [3d382] | 0.00525 |
| TACACTTGTCGTAAGAACTTTGGATGGGTTGA [2d59] | 0.0167 |
| TATCACTTTCGTAAGACATTTGGTGGGTTGA [3d1556] | 0.284 |

====

# Test system: F1*sub RNA substrate (template-directed ligation)
# EXPERIMENT: fraction ligated after 30 min (ligated reads / total reads); higher = more ligase activity
# RECORDED CONDITIONS: 42 °C

| MONOMER SEQUENCE | fraction ligated |
| --- | --- |
| GAGACCGCAACTGAAAAGTTGTTATCACTTGTCGTAAGACACTTTGGTGGGTTGGTTCTGCACGTAGAAGCAAAAGGC [3d2276] | 0.00831 |
| GAGACCGCAACTGAAAAGTTGTTATCACTTGTCGTAAGACACTTTGGATGGGTTGTTCTGCACGTAGAAGCAAAAGGC [3d2283] | 0.021 |
| GAGACCGCAACTGAAAAGTTGTTATCACTGTCGTAAGACACTTTGGATGGGTTGGTTCTGCACGTAGAAGCAAAAGGC [3d1463] | 0.0111 |
| GAGACCGCAACTGAAAAGTTGTTATCACTTGTCGTAAGAACTTTGGATGGGTTGGTTCTGCACGTAGAAGCAAAAGGC [3d2182] | 0.0451 |

====

# System: F1*sub RNA substrate (template-directed ligation)
# EXPERIMENT: fraction ligated after 30 min (ligated reads / total reads); higher = more ligase activity; sequences stand for … in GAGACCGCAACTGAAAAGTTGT…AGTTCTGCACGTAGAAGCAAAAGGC
# RECORDED CONDITIONS: 42 °C

| MONOMER SEQUENCE | fraction ligated |
| --- | --- |
| TACACTTGTGTAAGACACTTTGGATGGGTTG [3d631] | 0.145 |
| TATACTTGTCGTAAGACACTGGATGGGTTGA [3d925] | 0.74 |
| TATCACTTGTCTAAGACACTTTGGATGGTTGA [2d205] | 0.588 |
| TATCCTTGTCGTAACACTTTGGATGGGTTGA [3d1043] | 0.81 |
| ATCACTTTCGTAAGACACTTTGGATGGGTTA [3d138] | 0.137 |
| TATCACTTGTCGTAAGACACTTTGGGGGTTA [3d2271] | 0.0237 |
| TTACTTGTCGTAAGAACTTTGGATGGGTTGA [3d288] | 0.0626 |
| TATCACTTGGTAAGCACTTTGGATGGGTTGA [3d1588] | 0.818 |
| TATCCTTGTCGTAAGACACTTTGATGGGTTG [3d1109] | 0.749 |
| TATACTTGTGTAAGACCTTTGGATGGGTTGA [3d834] | 0.721 |
| TACACTTGTCGAGACACTTTGGATGGGTTGA [3d646] | 0.195 |
| TTCACTTGTCTAAGACACTTTGGTGGGTTGA [3d411] | 0.035 |
| ATCACTTGTCGTAGACATTTGGATGGGTTGA [3d203] | 0.731 |
| TATCACTTGTCAAGCACTTTGGATGGGTTGA [3d1812] | 0.785 |
| TACACTTTCGTAAGACACTTTGGATGGGTTG [3d600] | 0.0259 |
| TTCACTTGTCGTAAGACACTTTGAGGGTTGA [3d493] | 0.0469 |
| TACACTTTCGTAAGACACTTTGGATGGTTGA [3d598] | 0.0486 |
| TATCCTTGTCGTAAGACATTTGGTGGGTTGA [3d1092] | 0.237 |
| TATCCTTGTCGTAAGACACTTTGGATGGTTGA [2d106] | 0.0489 |
| ATCCTTGTCGTAAGACACTTTGGATGGGTTGA [2d4] | 0.744 |
| TATACTTGTCGTAAGACACTTTGGATGGGTTA [2d88] | 0.0592 |
| TATCACTTGTCGTAAGACATTTGGAGGTTGA [3d2224] | 0.00439 |
| TATCACTTGTCGTAAGAATTTGATGGGTTGA [3d2153] | 0.757 |
| TATCATTGTCGTAAGACACTTGGAGGGTTGA [3d1272] | 0.183 |
